Exercise: state measured CMV-LACZ in Myoblasts (β-galactosidase activity relative to DMSO) for each of the compounds provided.
- System: β-galactosidase in CMV-LacZ C2C12 myoblasts
- Assay Notes: CMV-LacZ secondary screen in C2C12 myoblasts (β-Gal stabilizing assay)
- Assay type: cell-based, mouse
- Experimental Setup: 5 uM; CMV-LacZ C2C12 myoblasts
Numbers only.

Compound	Recorded Result
COc1ccccc1NS(=O)(=O)c1cc(NC(=O)c2ccc(Cl)nc2)ccc1N1CCCC1 [MLS002248819-01]	1.2604

Parameters: items (list). Returns: CMV-LACZ in Myoblasts (β-galactosidase activity relative to DMSO) for each item.
1. COc1ccc(CCNC(=O)Cn2nnc(C(=O)Nc3ccc(Br)cc3)c2N)cc1OC [MLS000912699-01]
2. O=c1[nH]c(CN2CCCCC2)nc2c1C1(CCCCC1)Cc1ccccc1-2 [MLS000028160-01]
3. CCc1ccc(S(=O)(=O)NCCOc2cccc3cccnc23)cc1 [MLS001034810-01]
4. Cc1ccccc1NC(=O)NCCCN1CCN(C)CC1 [MLS001197665-01]

Completion:
[0.9111, 0.9378, 1.0948, 0.9214]

---

Exercise: state measured Burkin Assay in Myotubes, value relative to DMSO for each of the compounds provided.
- System: α7 integrin (LacZ reporter in α7+/LacZ myotubes)
- Assay Notes: Myotube α7 integrin FDG assay (Burkin assay in myotubes, 96-well)
- Assay type: cell-based, mouse
- Experimental Setup: 20 uM; SU9516 analogs, 96-well, N=3-6

Answered cases to consult:
Compound	Study Target	Recorded Result
NC(=O)COc1ccc(C(=O)/C=C2/C(=O)Nc3ccccc32)cc1 [MLS001214300-01]	α7 integrin (LacZ reporter in α7+/LacZ myotubes)	0.7447
N#C/C(=C1/C(=O)Nc2ccc(Br)cc21)c1ccccn1 [MLS001013431-01]	α7 integrin (LacZ reporter in α7+/LacZ myotubes)	0.7376
COc1ccc2c(c1)C(=C(C#N)C#N)C(=O)N2CCc1ccccc1 [MLS000763074-01]	α7 integrin (LacZ reporter in α7+/LacZ myotubes)	0.1921
COc1ccc(C(=O)/C=C2/C(=O)Nc3ccccc32)cc1 [MLS001163848-01]	α7 integrin (LacZ reporter in α7+/LacZ myotubes)	0.6878

Prompt: Recall the reported Burkin Assay in Myotubes, value relative to DMSO of Cc1ncc(/C=C2\C(=O)Nc3ccccc32)[nH]1 [MLS000834757-01] when tested on α7 integrin (LacZ reporter in α7+/LacZ myotubes).
Completion: 0.9989

---

- Tested on: β-galactosidase in CMV-LacZ C2C12 myotubes
- Assay Notes: CMV-LacZ secondary screen in C2C12 myotubes (β-Gal stabilizing assay)
- Assay type: cell-based, mouse
- Experimental Setup: 1 uM; C2C12 CMV-LacZ myotubes; fold relative to DMSO
Quantity: CMV-LACZ in Myotubes, signal relative to DMSO
Give bare numbers.

Compound	Recorded Result
Nc1ncnc(NCc2ccccc2)c1[N+](=O)[O-]	1.0200

Parameters: items (list). Returns: CMV-LACZ in Myotubes, signal relative to DMSO for each item.
1. c1ccc(-c2cc(-c3nc4ccccc4[nH]3)c3ccccc3n2)cc1
2. CC(=O)C1=C(C)Nc2ncnn2C1c1ccc(C)cc1 (stereo not drawn)
3. CC(C)(C)Nc1nc(-c2ccc3c(c2)CCN3C(=O)C2CC2)cs1
4. Cn1ccc(C(=O)Nc2cccnc2Cl)n1
5. COc1cccc(CN2CCN(Cc3ccco3)CC2)c1.O=C(O)C(=O)O
6. O=C(N[C@@H](Cc1c[nH]c2ccccc12)C(=O)O)C1CCN(S(=O)(=O)c2cccs2)CC1
7. O=C(O)c1csc(-c2cccs2)n1
8. CC(NC(=O)c1ccc(C(C)(C)C)cc1)C(c1cccs1)N1CCOCC1 (stereo not drawn)

Completion:
1: 0.9629; 2: 1.1705; 3: 0.9748; 4: 1.3827; 5: 0.8948; 6: 0.9621; 7: 1.1010; 8: 1.0789

Parameters: items (list). Returns: CMV-LACZ in Myotubes, signal relative to DMSO for each item.
1. COc1cc(NC(=O)OCc2ccccc2)c2ncccc2c1
2. Cc1nnc(-c2ccc(N3CCOCC3)c([N+](=O)[O-])c2)o1
3. Cc1ccsc1CN(C)CC(=O)Nc1ccc([N+](=O)[O-])cc1Cl
4. Cc1nnc(SCC(=O)c2ccc(Br)cc2)s1
5. c1ccc(-c2nn[nH]n2)nc1
6. C#CC1(O)CCC2C3CCC4=C/C(=N/OCC(=O)NCC(=O)NC(C(=O)O)C(C)C)CC[C@]4(C)C3CC[C@@]21C (stereo partly drawn)
7. O=C(O)CC1(c2ccccc2)C(=O)c2ccccc2C1=O
8. Cc1cccc2c(N=Nc3ccc(S(=O)(=O)Nc4ccc(Cl)cc4)cc3[N+](=O)[O-])c(O)[nH]c12

Completion:
1.0590
0.9533
1.0514
0.8527
1.0368
1.1326
1.1714
0.9326

Prompt: Look up CMV-LACZ in Myotubes, signal relative to DMSO of `Cc1cccc(Sc2nc(-c3ccccc3)ccc2C#N)c1` and report it.
Completion: 0.8968

---

- System: α7 integrin (LacZ reporter in α7+/LacZ myotubes)
- Assay Notes: Myotube α7 integrin FDG assay (Burkin assay in myotubes, 96-well)
- Type: cell-based, mouse
- Experimental Setup: 40 uM; SU9516 analogs, 96-well, N=3-6
Burkin Assay in Myotubes, value relative to DMSO less than 0.5 is MET; Burkin Assay in Myotubes, value relative to DMSO greater than or equal to 0.5 is NOT MET.

Field: example entries. Status: answers known.
Compound	Group
Cc1ccc2c(c1)/C(=C/c1ccccc1F)C(=O)N2 [MLS001202330-01]	NOT MET
O=C(O)COc1ccccc1/C=C1\C(=O)Nc2ccc(Br)cc21 [MLS001196427-01]	NOT MET
O=Nc1c(-c2c(O)[nH]c3cc(Br)ccc23)[nH]c2ccccc12 [NCGC00094112-04]	MET

Prompt: Report whether reported Burkin Assay in Myotubes, value relative to DMSO is lower than 0.5 (strictly) for O=C1Nc2ccccc2/C1=C/c1cnc(-c2ccccc2)[nH]1 [MLS000834756-01]
Completion: NOT MET

Prompt: Report whether reported Burkin Assay in Myotubes, value relative to DMSO is lower than 0.5 (strictly) for CCN(CC)CCNC(=O)c1c(C)[nH]c(/C=C2\C(=O)Nc3ccc(F)cc32)c1C [NCGC00164631-04]
Completion: MET

Prompt: Report whether reported Burkin Assay in Myotubes, value relative to DMSO is lower than 0.5 (strictly) for Cc1ccc2c(c1)/C(=C/c1ccccc1C)C(=O)N2 [MLS001202402-01]
Completion: MET

Prompt: Report whether reported Burkin Assay in Myotubes, value relative to DMSO is lower than 0.5 (strictly) for Cc1ccc2c(c1)/C(=C/c1ccccc1)C(=O)N2 [MLS001202354-01]
Completion: NOT MET

Prompt: Report whether reported Burkin Assay in Myotubes, value relative to DMSO is lower than 0.5 (strictly) for Cc1ncc(/C=C2\C(=O)Nc3ccccc32)[nH]1 [MLS000834757-01]
Completion: NOT MET

Prompt: Report whether reported Burkin Assay in Myotubes, value relative to DMSO is lower than 0.5 (strictly) for COc1ccccc1/C=C1\C(=O)Nc2ccccc21 [MLS001202634-01]
Completion: NOT MET

Prompt: Report whether reported Burkin Assay in Myotubes, value relative to DMSO is lower than 0.5 (strictly) for CN1CCN(c2ccccc2/C=C2/C(=O)Nc3ccccc32)CC1 [MLS001182377-01]
Completion: NOT MET

Prompt: Report whether reported Burkin Assay in Myotubes, value relative to DMSO is lower than 0.5 (strictly) for Cc1ccc(/C=C2\C(=O)Nc3ccccc32)o1 [MLS000391588-01]
Completion: NOT MET

---

Exercise: state measured CMV-LACZ in Myoblasts (β-galactosidase activity relative to DMSO) for each of the molecules provided.
- Tested on: β-galactosidase in CMV-LacZ C2C12 myoblasts
- Assay Notes: CMV-LacZ secondary screen in C2C12 myoblasts (β-Gal stabilizing assay)
- Assay type: cell-based, mouse
- Experimental Setup: 5 uM; CMV-LacZ C2C12 myoblasts
One number for each entry.

Answered cases to consult:
Molecule	Recorded Result
CC(C)(C)NC(=O)NC(=O)CN1CCN(Cc2ccccc2)CC1 [MLS001006302-01]	0.8911
CN(CCC1CCCCO1)C(=O)CCc1nnc(CCCCc2ccccc2)o1 (stereo not shown) [MLS000735021-01]	0.9756
COc1cc(NC(=O)OCc2ccccc2)c2ncccc2c1 [MLS002667707-01]	1.1897
Br.COc1ccc(C(=O)CN2CCCCC2)cc1 [MLS001004864-01]	1.2276
O=C(COc1ccc(Cl)cc1)N1CCN(C2CCCC2)CC1.O=C(O)C(=O)O [MLS001221318-01]	1.0999
CCC(C)n1[nH]c(=O)cc1N (stereo not shown) [MLS000073150-01]	0.8193
COc1ccc(CNC(=O)C2CCCN(S(=O)(=O)c3c(C)noc3/C=C/N(C)C)C2)cc1 (stereo not shown) [MLS000925023-01]	0.9762
Cn1ccc(C(=O)Nc2cccnc2Cl)n1 [MLS001147478-01]	1.2105
Cc1ccccc1-n1c(Cc2cccs2)n[nH]c1=S [MLS000568234-01]	0.9043
O=C(Cn1nc(-c2ccc(Cl)cc2)ccc1=O)N1CCC2(CC1)OCCO2 [MLS000689492-01]	1.0863

Parameters: items (list). Returns: CMV-LACZ in Myoblasts (β-galactosidase activity relative to DMSO) for each item.
1. CCOc1cc(C)c(S(=O)(=O)N2CCCCC2)cc1C [MLS000693795-01]
2. O=C(Nc1cc(-c2nc3ccccc3s2)ccc1Cl)c1ccc2c(c1)OCO2 [MLS000560266-01]
3. COc1ccc(CN2CCNC(=O)C2CC(=O)NCCc2c[nH]c3ccccc23)c(OC)c1 (stereo not shown) [MLS000734270-01]

Completion:
1: 0.9554; 2: 0.9405; 3: 0.9337
